# assay-details: Plasma stability in vitro, human plasma
# assay-context: human plasma, 2 μM, 37° C., 10 min; in % (unit assumed)
Measured Content of Tested Substance (n = 2) by item
Simply state the number, no unit and no words.

Use these answered entries as a reference point.
>>> df
                                   compound                              measure  assay_result
0  COc1cc(OC)c2c(=O)[nH]c(-c3cc(C)c(OCCOC(=O)CCC(CO[N+](=O)[O-])O[N+](=O)[O-])c(C)c3)nc2c1 (centres unmarked)  Content of Tested Substance (n = 2)         101.5
1  COc1cc(OC)c2c(=O)[nH]c(-c3cc(C)c(OCCOC(=O)ONS(=O)(=O)c4ccc(C)s4)c(C)c3)nc2c1  Content of Tested Substance (n = 2)          97.3
2  COc1cc(OC)c2c(=O)[nH]c(-c3cc(C)c(OCCO[N+](=O)[O-])c(C)c3)nc2c1  Content of Tested Substance (n = 2)          99.5
3  COc1cc(OC)c2c(=O)[nH]c(-c3cc(C)c(OCCOC(=O)c4cccc(CO[N+](=O)[O-])c4)c(C)c3)nc2c1  Content of Tested Substance (n = 2)         101.5

# next compound below
Prompt: // Input: COc1cc(OC)c2c(=O)[nH]c(-c3cc(C)c(OCCOC(=O)ONS(=O)(=O)c4ccc(C)o4)c(C)c3)nc2c1 . Output its Content of Tested Substance (n = 2) only.
Response: 99.5
